assay-readout: log10 Koc (L/kg)
Lab note: record just the number, no unit beside it.

# compound-smiles, log10 Koc (L/kg)
measured = [
    ("CC(C)Nc1nc(Cl)nc(NC(C)C)n1", 2.4),
]

Tell me log10 Koc (L/kg) reported for `CCOP(=S)(OCC)Oc1ccc(S(C)(=O)=O)cc1`
2.17

---

Just so you know, the groups by melting point go like this: low = under 30 °C, medium = from 30 °C up to 100 °C, high = 100 °C and over

Examples from the recorded data:
# molecule, group-label
measured = [
    ("FC(F)(F)c1ccccc1", "low"),
    ("CCc1ccccc1Cl", "low"),
]

Next, consider the following molecule.
Record `O=C(C(Br)Br)C(Br)(Br)Br` — which class?
medium

---

Readings of boiling point for the listed compounds
Quick note: give the figure in °C, leave out the unit.

Please indicate boiling point recorded for CCC1C=CCCC1 (centres undefined)
134

For the compound `CCOC(=O)C1(C(=O)OCC)CCC1` , give its measured boiling point value.
224

Return reported boiling point. Input compound: CCCC(C)C(C)CCC (centres undefined)
162

Return value of boiling point for input `FC(F)=C(F)Br` , no commentary.
-1

Please indicate boiling point recorded for `Cn1nnc2ccccc21`
270

Quick one: give measured boiling point for `CCCO`
97.2

---

assay-readout: melting point (°C)
Hi! Could you send only the number? It should be in °C, unit omitted.

# molecule, assay-readout, number
data = [
    ("C=C[C@@H]1C2=CCOC(=O)C2=CO[C@H]1O[C@@H]1O[C@H](CO)[C@@H](O)[C@H](O)[C@H]1O", "melting point", 191),
    ("C[Si]1(C)O[Si](C)(C)O[Si](C)(C)O[Si](C)(C)O1", "melting point", 17.5),
    ("O=C(OCC(COC(=O)c1ccccc1)OC(=O)c1ccccc1)c1ccccc1", "melting point", 76),
    ("CC[C@H]1OC(=O)[C@H](C)[C@@H](O[C@H]2C[C@@](C)(OC)[C@@H](O)[C@H](C)O2)[C@H](C)[C@@H](O[C@@H]2O[C@H](C)C[C@H](N(C)C)[C@H]2O)[C@](C)(O)C[C@@H](C)C(=O)[C@H](C)[C@@H](O)[C@]1(C)O", "melting point", 191),
    ("Cc1ccn2nc(S(=O)(=O)Nc3c(F)cccc3F)nc2n1", "melting point", 252),
]

Indicate its recorded melting point; the molecule in question is `Cc1ccccc1O`
29.8

Tell us which melting point value is on record for `CNC[C@H](O)c1cccc(O)c1.Cl`
142

Indicate its recorded melting point; the molecule in question is `CC1=CC(=O)c2ccccc2C1=O`
107

Let me know recorded melting point for `Cc1cnc(Cl)nc1Cl` , thanks.
26

Read off the recorded melting point for `O=C(O)c1ccc([N+](=O)[O-])cc1[N+](=O)[O-]`
182

Output measured melting point for this item: `CCCCCCCCOc1ccc(C(=O)c2ccccc2)c(O)c1`
48.5

State its melting point for this molecule: `NS(=O)(=O)c1ccc(CCCO)cc1`
95.5

Answer with the recorded melting point for the molecule listed here: `O=Cc1ccc2c(c1)OCO2`
37

Provide measured melting point value, entry: `FC(F)(F)C(F)(F)C(F)(F)C(F)(F)C(F)(F)F`
-100

Output measured melting point for this item: `CN(C)C(=S)SSC(=S)N(C)C`
156

Using the record for CC(Oc1ccc(Cl)cc1Cl)C(=O)O (stereo not given) , state its measured melting point.
122

Supply measured melting point of `Cc1ccccc1-n1c(C)nc2ccccc2c1=O` in your reply.
120

Tell me its melting point given `NCCOB(c1ccccc1)c1ccccc1` as the entry.
193
